Target: complement C5a receptor 1 (C5aR1) (Homo sapiens)
Construct: β-galactosidase fragment (PathHunter enzyme complementation); host or cells: CHO-K1 (PathHunter CHO-K1 C5aR1 β-arrestin cell line)
Sequence (P21730 1-350): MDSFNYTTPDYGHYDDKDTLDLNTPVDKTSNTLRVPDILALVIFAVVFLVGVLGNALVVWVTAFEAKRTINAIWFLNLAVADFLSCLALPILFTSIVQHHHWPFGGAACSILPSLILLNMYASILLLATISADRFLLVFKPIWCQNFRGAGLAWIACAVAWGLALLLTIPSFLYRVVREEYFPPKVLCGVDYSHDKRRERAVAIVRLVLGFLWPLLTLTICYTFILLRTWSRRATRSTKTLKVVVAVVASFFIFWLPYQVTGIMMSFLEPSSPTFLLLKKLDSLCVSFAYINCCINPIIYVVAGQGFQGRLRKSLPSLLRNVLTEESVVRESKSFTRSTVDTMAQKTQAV
Test: β-arrestin recruitment via C5aR1 activation in live CHO-K1 cells (PathHunter), antagonist mode
Assay type: cell-based
Details: antagonist mode; recombinant hC5a (EC90) as competing natural agonist; live CHO-K1 cells; read-out: [Antagonist] B-arrestin2 recruitment: Average IC50
Protocol: Exemplary compounds were evaluated for classical GPCR β-arrestin recruitment via complement C5a receptor 1 (C5aR1) activation in live CHO-K1 cells. This cell line expresses two fragments of the […] protein coupled to β-arrestin and C5aR1. Complementation of the two fragments allows for the assessment of both C5aR1 agonism and antagonism. […]
Each record here notes measured IC50.
test_readout: IC50

molecule="Cc1cccc(F)c1N1CCC(c2cc3nccnc3n([C@@H]3CCCc4nccnc43)c2=O)CC1 [43a]" experimental_system="complement C5a receptor 1 (C5aR1) (Homo sapiens)" readout_value="0.5 to 5 µM"
molecule="Cc1cnc2cc([C@@H]3CC[C@@H](c4c(C)cccc4F)C3)c(=O)n(Cc3nccnc3C)c2n1 [172D]" experimental_system="complement C5a receptor 1 (C5aR1) (Homo sapiens)" readout_value="5 to 100 µM"
molecule="Cc1cnc2cc(C3CCN(c4c(C)cccc4F)CC3)c(=O)n(Cc3nccnc3C(F)(F)F)c2n1 [compound 25]" experimental_system="complement C5a receptor 1 (C5aR1) (Homo sapiens)" readout_value="< 0.5 µM"
molecule="Cc1cnc2cc(C3CCN(c4cccnc4C(F)(F)F)CC3)c(=O)n(Cc3ncccc3C(F)(F)F)c2n1 [compound 157]" experimental_system="complement C5a receptor 1 (C5aR1) (Homo sapiens)" readout_value="0.5 to 5 µM"

###

target: complement C5a receptor 1 (C5aR1) (Homo sapiens); construct: β-galactosidase fragment (PathHunter enzyme complementation); host or cells: CHO-K1 (PathHunter CHO-K1 C5aR1 β-arrestin cell line); assay: β-arrestin recruitment via C5aR1 activation in live CHO-K1 cells (PathHunter), agonist mode; assay type: cell-based
test_readout: [Agonist] B-arrestin2 recruitment: Average EC50 (nM)

sample_smiles=Cc1cccc(F)c1N1CCC(c2cc3nccnc3n(Cc3ncccc3OC(F)(F)F)c2=O)CC1 experimental_system="complement C5a receptor 1 (C5aR1) (Homo sapiens)" readout_value=Non-Active
sample_smiles=O=c1c(C2CCN(c3cnccc3C(F)(F)F)CC2)cc2nccnc2n1Cc1nccnc1C(F)(F)F experimental_system="complement C5a receptor 1 (C5aR1) (Homo sapiens)" readout_value=Non-Active
sample_smiles=Cc1cccc(F)c1N1CCC(c2cc3nccnc3n(Cc3ncccc3C(F)(F)F)c2=O)CC1 experimental_system="complement C5a receptor 1 (C5aR1) (Homo sapiens)" readout_value=Non-Active
sample_smiles=Cc1c(N2CCC(c3cc4nccnc4n(Cc4ccccc4C(F)(F)F)c3=O)CC2)ccnc1F experimental_system="complement C5a receptor 1 (C5aR1) (Homo sapiens)" readout_value=Non-Active

###

molecular target: complement C5a receptor 1 (C5aR1) (Homo sapiens, UniProt P21730); construct: β-galactosidase fragment (PathHunter enzyme complementation); host or cells: CHO-K1 (PathHunter CHO-K1 C5aR1 β-arrestin cell line); experiment: β-arrestin recruitment via C5aR1 activation in live CHO-K1 cells (PathHunter), antagonist mode; type: cell-based; details: antagonist mode; recombinant hC5a (EC90) as competing natural agonist; live CHO-K1 cells; read-out: [Antagonist] B-arrestin2 recruitment: Average IC50
The reader will find reported IC50 values listed item by item below.
test_readout: IC50

molecule="Cc1cnc2cc([C@H]3CC[C@H](c4nn(C)c5ccccc54)CC3)c(=O)n(Cc3ncccc3C(F)(F)F)c2n1 [compound 191]" readout_value="5 to 100 µM"
molecule="Cc1cnc2cc(C3CCN(c4c(C)cccc4F)CC3)c(=O)n(Cc3nccnc3C)c2n1 [compound 106]" readout_value="< 0.5 µM"
molecule="Cc1ccc2cc([C@H]3CC[C@H](c4cnccc4C(F)(F)F)CC3)c(=O)n(Cc3ncccc3C3CC3)c2n1 [compound 248]" readout_value="< 0.5 µM"
molecule="O=c1c(C2CCN(c3cccnc3C(F)(F)F)CC2)cc2nccnc2n1Cc1ccccc1F [compound 18]" readout_value="> 100 µM"

###

Listed next: entries and their corresponding IC50.
Target: complement C5a receptor 1 (C5aR1) (Homo sapiens)
Construct: β-galactosidase fragment (PathHunter enzyme complementation); host or cells: CHO-K1 (PathHunter CHO-K1 C5aR1 β-arrestin cell line)
Test: β-arrestin recruitment via C5aR1 activation in live CHO-K1 cells (PathHunter), antagonist mode
Type: cell-based
Details: antagonist mode; recombinant hC5a (EC90) as competing natural agonist; live CHO-K1 cells; read-out: [Antagonist] B-arrestin2 recruitment: Average IC50
Protocol: Exemplary compounds were evaluated for classical GPCR β-arrestin recruitment via complement C5a receptor 1 (C5aR1) activation in live CHO-K1 cells. This cell line expresses two fragments of the […] protein coupled to β-arrestin and C5aR1. Complementation of the two fragments allows for the assessment of both C5aR1 agonism and antagonism. […]
test_readout: IC50

molecule=CCOc1ncc2cc(C3CCN(c4c(C)cccc4F)CC3)c(=O)n(Cc3nccnc3C(F)(F)F)c2n1 test_readout=IC50 readout_value="0.5 to 5 µM"
molecule="Cc1cnc2cc([C@@H]3CC[C@@H](c4c(C)cccc4F)C3)c(=O)n(Cc3ncccc3C(F)F)c2n1 [187D]" test_readout=IC50 readout_value="0.5 to 5 µM"
molecule=Cc1cnc2cc(N3CCC(c4c(C)cccc4F)CC3)c(=O)n(Cc3nccnc3C(F)(F)F)c2n1 test_readout=IC50 readout_value="0.5 to 5 µM"
molecule=Cc1ccc2cc([C@H]3CC[C@H](c4c(C)ccnc4F)CC3)c(=O)n(Cc3ncccc3C(C)(F)F)c2n1 test_readout=IC50 readout_value="< 0.5 µM"

###

target: complement C5a receptor 1 (C5aR1) (Homo sapiens, UniProt P21730); construct: β-galactosidase fragment (PathHunter enzyme complementation); host or cells: CHO-K1 (PathHunter CHO-K1 C5aR1 β-arrestin cell line); assay: β-arrestin recruitment via C5aR1 activation in live CHO-K1 cells (PathHunter), antagonist mode; type: cell-based; conditions: antagonist mode; recombinant hC5a (EC90) as competing natural agonist; live CHO-K1 cells; read-out: [Antagonist] B-arrestin2 recruitment: Average IC50
Each item that follows carries a reported IC50.
test_readout: IC50

compound="COc1ncnc2cc(C3CCN(c4c(C)cccc4F)CC3)c(=O)n(Cc3nccnc3C(F)(F)F)c12 [compound 93]" readout_value="> 100 µM"
compound="Cc1cccc(F)c1N1CCC(c2cc3nccnc3n([C@H]3CCCc4cccnc43)c2=O)CC1 [40b]" readout_value="> 100 µM"
compound="Cc1cnc(F)cc1N1CCC(c2cc3nccnc3n(Cc3ccccc3C(F)(F)F)c2=O)CC1 [compound 26]" readout_value="0.5 to 5 µM"
compound="Cc1cnc2cc([C@H]3CC[C@H](c4cnccc4C(F)(F)F)CC3)c(=O)n(Cc3ncccc3C(F)(F)F)c2n1 [150B]" readout_value="< 0.5 µM"
compound="Cc1cnc2cc(C3CCN(c4nnccc4C)CC3)c(=O)n(Cc3ncccc3C(F)(F)F)c2n1 [compound 115]" readout_value="0.5 to 5 µM"
compound="Cc1cccc(F)c1N1CCC(c2cc3nccnc3n([C@@H]3CCCc4cccnc43)c2=O)CC1 [40a]" readout_value="5 to 100 µM"
compound="Cc1cnc2cc(C3CCN(c4ncsc4C)CC3)c(=O)n(Cc3ncccc3C(F)(F)F)c2n1 [compound 131]" readout_value="< 0.5 µM"
compound="Cc1ccnc(F)c1N1CCC(c2cc3nccnc3n(Cc3ncccc3C(F)(F)F)c2=O)CC1 [compound 127]" readout_value="< 0.5 µM"

###

target: complement C5a receptor 1 (C5aR1) (Homo sapiens); construct: β-galactosidase fragment (PathHunter enzyme complementation); host or cells: CHO-K1 (PathHunter CHO-K1 C5aR1 β-arrestin cell line); assay: β-arrestin recruitment via C5aR1 activation in live CHO-K1 cells (PathHunter), antagonist mode; format: cell-based; settings: antagonist mode; recombinant hC5a (EC90) as competing natural agonist; live CHO-K1 cells; read-out: [Antagonist] B-arrestin2 recruitment: Average IC50
pIC50: −log10 of the molar value.
test_readout: pIC50

compound="Cc1cnc2cc([C@H]3CC[C@@H](c4c(C)cccc4F)CC3)c(=O)n(Cc3nccnc3C(F)F)c2n1 [148A]" test_readout=pIC50 readout_value="5.30 to 6.30"
compound="Cc1cccc(F)c1N1CCC(c2cc3nccnc3n([C@H]3CCCc4ccccc43)c2=O)CC1 [53b]" test_readout=pIC50 readout_value="5.30 to 6.30"
compound="Cc1cccc(F)c1N1CCC(c2cc3nccnc3n([C@@H]3CCCc4ccccc43)c2=O)CC1 [53a]" test_readout=pIC50 readout_value="4.00 to 5.30"
compound="Cc1cnc2cc(C3CCN(c4c(C)cccc4F)CC3)c(=O)n([C@H]3CCCc4nccnc43)c2n1 [61a]" test_readout=pIC50 readout_value="5.30 to 6.30"
compound="COc1nccc(C)c1[C@H]1CC[C@H](c2cc3ccc(C)nc3n(Cc3ncccc3C(F)(F)F)c2=O)CC1 [compound 234]" test_readout=pIC50 readout_value="> 6.30"
compound="Cc1cnc2cc([C@H]3CC[C@H](c4scnc4C)CC3)c(=O)n(Cc3ncccc3C(F)(F)F)c2n1 [compound 164]" test_readout=pIC50 readout_value="5.30 to 6.30"
compound="Cc1cnc2cc(C3CCN(c4c(C)cccc4F)CC3)c(=O)n(Cc3nccnc3C(F)F)c2n1 [compound 120]" test_readout=pIC50 readout_value="> 6.30"
compound="COc1nccnc1Cn1c(=O)c(N2CCN(c3c(C)cccc3F)CC2)cc2ncc(C)nc21 [compound 125]" test_readout=pIC50 readout_value="5.30 to 6.30"
compound="Cc1cccc(F)c1N1CCC(c2cc3nccnc3n(Cc3nccnc3C(F)F)c2=O)CC1 [compound 122]" test_readout=pIC50 readout_value="> 6.30"
compound="Cc1cnc2cc([C@H]3CC[C@H](c4cnsc4C)CC3)c(=O)n(Cc3ncccc3OC(F)(F)F)c2n1 [compound 253]" test_readout=pIC50 readout_value="> 6.30"
compound="Cc1cnc2cc(C3CCN(c4c(C)cccc4F)CC3)c(=O)n(Cc3nccnc3OC(F)F)c2n1 [compound 167]" test_readout=pIC50 readout_value="> 6.30"
compound="Cc1cc(F)ncc1N1CCC(c2cc3nccnc3n(Cc3ccccc3C(F)(F)F)c2=O)CC1 [compound 32]" test_readout=pIC50 readout_value="> 6.30"
compound="Cc1cnc2cc(C3CCN(c4c(C)ccnc4F)CC3)c(=O)n(Cc3nccnc3C(F)(F)F)c2n1 [compound 130]" test_readout=pIC50 readout_value="> 6.30"
compound="Cc1cnc2cc(C3CCN(c4c(C)ccnc4F)CC3)c(=O)n(Cc3ncccc3C(F)F)c2n1 [compound 141]" test_readout=pIC50 readout_value="> 6.30"
compound="Cc1cnc2cc([C@H]3CC[C@H](c4c(C)cccc4F)CC3)c(=O)n(Cc3ncccc3C(C)(F)F)c2n1 [compound 177]" test_readout=pIC50 readout_value="> 6.30"
compound="Cc1cnc2cc([C@H]3CC[C@H](c4c(C)cccc4F)CC3)c(=O)n(Cc3nccnc3C(F)F)c2n1 [148B]" test_readout=pIC50 readout_value="> 6.30"
compound="Cc1ccc2cc([C@H]3CC[C@H](c4cnccc4C(F)(F)F)CC3)c(=O)n(Cc3ncccc3C(F)(F)F)c2n1 [compound 251]" test_readout=pIC50 readout_value="> 6.30"
compound="Cc1cnc2cc(C3CCN(c4ccnnc4C)CC3)c(=O)n(Cc3ncccc3C(F)(F)F)c2n1 [compound 113]" test_readout=pIC50 readout_value="< 4.00"
compound="COc1cnc2cc(C3CCN(c4c(C)cccc4F)CC3)c(=O)n(Cc3nccnc3C(F)(F)F)c2n1 [compound 76]" test_readout=pIC50 readout_value="5.30 to 6.30"
compound="Cc1cnc2cc([C@H]3CC[C@H](c4c(F)cccc4F)CC3)c(=O)n(Cc3ncccc3C(F)(F)F)c2n1 [compound 222]" test_readout=pIC50 readout_value="> 6.30"
compound="O=c1c(C2CCN(c3nccnc3F)CC2)cc2nccnc2n1Cc1ccccc1C(F)(F)F [compound 34]" test_readout=pIC50 readout_value="< 4.00"
compound="Cc1cccc(F)c1N1CCC(c2cc3nccnc3n([C@@H]3CCCc4ncccc43)c2=O)CC1 [49a]" test_readout=pIC50 readout_value="4.00 to 5.30"
compound="Cc1ccc2cc([C@H]3CC[C@H](c4c(F)cccc4F)CC3)c(=O)n(Cc3ncccc3OC(F)(F)F)c2n1 [compound 246]" test_readout=pIC50 readout_value="> 6.30"
compound="Cc1cccc(F)c1N1CCC(c2cc3nccnc3n(Cc3nccn(C(F)F)c3=O)c2=O)CC1 [compound 159]" test_readout=pIC50 readout_value="4.00 to 5.30"
compound="Cc1cccc(F)c1N1CCC(c2c(C)c3nccnc3n(Cc3ncccc3C(F)(F)F)c2=O)CC1 [compound 57]" test_readout=pIC50 readout_value="> 6.30"
compound="Cc1cnc2cc([C@H]3CC[C@H](c4c(C)ccnc4F)CC3)c(=O)n(Cc3nccnc3C(F)(F)F)c2n1 [143A]" test_readout=pIC50 readout_value="> 6.30"
compound="Cc1ccc2cc([C@H]3CC[C@H](c4c(F)cccc4F)CC3)c(=O)n(Cc3ncccc3C(F)(F)F)c2n1 [compound 223]" test_readout=pIC50 readout_value="> 6.30"
compound="Cc1cccc(F)c1N1CCC(c2cc3nccnc3n(Cc3ccccc3F)c2=O)CC1 [compound 35]" test_readout=pIC50 readout_value="> 6.30"
compound="CCOc1nccnc1Cn1c(=O)c([C@H]2CC[C@H](c3c(C)cccc3F)CC2)cc2ncc(C)nc21 [compound 169]" test_readout=pIC50 readout_value="> 6.30"
compound="Cc1cnc2cc([C@H]3CC[C@H](c4c(C)cccc4F)C3)c(=O)n(Cc3ncccc3OC(F)F)c2n1 [175C]" test_readout=pIC50 readout_value="> 6.30"
